// provenance: ChEMBL document CHEMBL5614426

biological target: Histone-lysine N-methyltransferase EHMT2 (Homo sapiens) (UniProt Q96KQ7); assay: Inhibition of G9a (unknown origin) at 1 uM by AlphaLISA assay relative to control
PROPERTY LABEL: inhibition (%)

// below: answered compounds
COc1cc2nc(N3CCCN(C)CC3)nc(NC3CCN(Cc4ccccc4)CC3)c2cc1OC    98.3
CNc1nc(NC2CCN(Cc3ccccc3)CC2)c2cc(OC)c(OC)cc2n1    99.5
COc1cc2ncnc(NC3CCN(Cc4ccccc4)CC3)c2cc1OC    27.4
COc1cc2nc(C#N)nc(NC3CCN(Cc4ccccc4)CC3)c2cc1OC    2.8
COc1cc2nc(N3CCCCC3)nc(NC3CCN(Cc4ccccc4)CC3)c2cc1OC    98

(I) COc1cc2nc(N(C)C)nc(NC3CCN(Cc4ccccc4)CC3)c2cc1OC
(II) COc1cc2nc(-c3ccccc3)nc(NC3CCN(Cc4ccccc4)CC3)c2cc1OC
Select the item with the higher value of inhibition from the options I and II listed. Write the label of whichever entry you select.
I

(I) COc1cc2nc(N)nc(NC3CCN(Cc4ccccc4)CC3)c2cc1OC
(II) COc1cc2nc(CN)nc(NC3CCN(Cc4ccccc4)CC3)c2cc1OC
Compare reported inhibition values for I and II . Which is lower? Write the label of whichever entry you select.
II

###

molecular target: Histone-lysine N-methyltransferase EHMT2 (Homo sapiens) (UniProt Q96KQ7); assay: Inhibition of G9a (unknown origin) at 10 uM by AlphaLISA assay relative to control
PROPERTY LABEL: inhibition (%)

COc1cc2nc(N(C)C)nc(NC3CCN(Cc4ccccc4)CC3)c2cc1OC    99.1

(a) COc1cc2nc(CN)nc(NC3CCN(Cc4ccccc4)CC3)c2cc1OC
(b) COc1cc2nc(C#N)nc(NC3CCN(Cc4ccccc4)CC3)c2cc1OC
Select the item with the higher value of inhibition from the options a and b listed. Write the label of whichever entry you select.
a

###

target: UniProt:O96028; assay: Inhibition of NSD2-SET domain (unknown origin)
pIC50: −log10 of the molar value.
PROPERTY LABEL: pIC50

Name the reported pIC50 value associated with the compound COc1cc(F)c(-c2cc(Cn3cnc4c(N)ncnc43)c(N3CCC[C@](N)([C@H](O)C(F)F)C3)cn2)cc1F
> 7.00

###

biological target: Histone-lysine N-methyltransferase EHMT1 (Homo sapiens)
pIC50: −log10 of the molar value.
PROPERTY LABEL: pIC50

API: value(readout= pIC50, system= Histone-lysine N-methyltransferase EHMT1 (Homo sapiens), query= COc1cc2c(NC3CCN(C(C)C)CC3)nc(C#N)nc2cc1OCCCN1CCOCC1 )
< 5.00

###

target: UniProtKB O96028; experiment: Inhibition of recombinant human NSD2 (941 to 1240 residues) using unmethylated histone H3 as substrate incubated for 40 mins in the presence of SAM and nucleosomes by AlphaLISA method
pIC50: −log10 of the molar value.
PROPERTY LABEL: pIC50

// below: answered molecules
CC(C)N1CCC(Nc2nc(C#N)nc3ccccc23)CC1    6.42
CCN1CCC(Nc2nc(C#N)nc3cc(OC)c(OC)cc23)CC1    5.82
COCCOc1cc2nc(C#N)nc(NC3CCN(C(C)C)CC3)c2cc1OC    7.54

(a) CC#CC(=O)NC12CC(NC3=C(Cl)C(=O)c4ncccc4C3=O)(C1)C2
(b) COc1cc2nc(C#N)nc(NC3CCNCC3)c2cc1OC
Compare reported pIC50 values for a and b . Which is lower? Write the label of whichever entry you select.
b
(b: 5.85, a: 6.61)

###

experiment: MRT (0 to t) in mouse at 1 mg/kg, iv measured upto 24 hrs by LC-MS/MS analysis; format: ADME, organism-based; conditions: in vivo
PROPERTY LABEL: MRT last at 24 h (h)
Express it in h; write the number only.

Name the reported MRT last at 24 h value associated with the compound COc1cc2c(NC3CCN(C(C)C)CC3)nc(C#N)nc2cc1OCCCN1CCOCC1
6.12

###

experiment: Half life in mouse at 50 mg/kg, po measured upto 24 hrs by LC-MS/MS analysis; assay type: ADME, organism-based; conditions: in vivo
PROPERTY LABEL: half-life (h)
Express it in h; write the number only.

Name the reported half-life value associated with the compound COc1cc2c(NC3CCN(C(C)C)CC3)nc(C#N)nc2cc1OCCCN1CCOCC1
6.35

###

experiment: AUC (0 to infinity) in mouse at 1 mg/kg, iv measured upto 24 hrs by LC-MS/MS analysis; format: ADME, organism-based; conditions: in vivo
PROPERTY LABEL: AUC (ng·h/mL)
Express it in ng·h/mL; write the number only.

Name the reported AUC value associated with the compound COc1cc2c(NC3CCN(C(C)C)CC3)nc(C#N)nc2cc1OCCCN1CCOCC1
134

###

assay: AUC (0 to infinity) in mouse at 50 mg/kg, po measured upto 24 hrs by LC-MS/MS analysis; format: ADME, organism-based; details: in vivo
PROPERTY LABEL: AUC (ng·h/mL)
Express it in ng·h/mL; write the number only.

Name the reported AUC value associated with the compound COc1cc2c(NC3CCN(C(C)C)CC3)nc(C#N)nc2cc1OCCCN1CCOCC1
1760

###

molecular target: Histone-lysine N-methyltransferase NSD2 (Homo sapiens); experiment: Inhibition of recombinant human NSD2 (941 to 1240 residues) using unmethylated histone H3 as substrate incubated for 40 mins in the presence of SAM and nucleosomes by AlphaLISA method
pIC50: −log10 of the molar value.
PROPERTY LABEL: pIC50

// below: answered molecules
COc1cc2nc(C#N)nc(NC3CCN(C(=O)OC(C)(C)C)CC3)c2cc1OC    5.48
COc1cc2nc(C#N)nc(NC3CCOCC3)c2cc1OC    5.31
COc1cc2nc(C#N)nc(N(C)C3CCN(C)CC3)c2cc1OC    5.42

(1) COc1cc2c(NC3CCN(C(C)C)CC3)nc(C#N)nc2cc1OCCN1CCOCC1
(2) COc1ccc2nc(C#N)nc(NC3CCN(C(C)C)CC3)c2c1
(3) COc1cc2nc(C#N)nc(NC3CCN(C(C)=O)CC3)c2cc1OC
Order the items by recorded pIC50; the first position goes to the largest value. Put the labels in the requested order and write them down.
1, 2, 3
(1: 7.36, 2: 7.07, 3: 5.56)

###

target: Histone-lysine N-methyltransferase NSD2 (Homo sapiens, UniProt O96028); test: Inhibition of recombinant human NSD2 (941 to 1240 residues) using unmethylated histone H3 as substrate incubated for 40 mins in the presence of SAM and nucleosomes by AlphaLISA method
Sequence (O96028 whole entry, the tested form may be a part): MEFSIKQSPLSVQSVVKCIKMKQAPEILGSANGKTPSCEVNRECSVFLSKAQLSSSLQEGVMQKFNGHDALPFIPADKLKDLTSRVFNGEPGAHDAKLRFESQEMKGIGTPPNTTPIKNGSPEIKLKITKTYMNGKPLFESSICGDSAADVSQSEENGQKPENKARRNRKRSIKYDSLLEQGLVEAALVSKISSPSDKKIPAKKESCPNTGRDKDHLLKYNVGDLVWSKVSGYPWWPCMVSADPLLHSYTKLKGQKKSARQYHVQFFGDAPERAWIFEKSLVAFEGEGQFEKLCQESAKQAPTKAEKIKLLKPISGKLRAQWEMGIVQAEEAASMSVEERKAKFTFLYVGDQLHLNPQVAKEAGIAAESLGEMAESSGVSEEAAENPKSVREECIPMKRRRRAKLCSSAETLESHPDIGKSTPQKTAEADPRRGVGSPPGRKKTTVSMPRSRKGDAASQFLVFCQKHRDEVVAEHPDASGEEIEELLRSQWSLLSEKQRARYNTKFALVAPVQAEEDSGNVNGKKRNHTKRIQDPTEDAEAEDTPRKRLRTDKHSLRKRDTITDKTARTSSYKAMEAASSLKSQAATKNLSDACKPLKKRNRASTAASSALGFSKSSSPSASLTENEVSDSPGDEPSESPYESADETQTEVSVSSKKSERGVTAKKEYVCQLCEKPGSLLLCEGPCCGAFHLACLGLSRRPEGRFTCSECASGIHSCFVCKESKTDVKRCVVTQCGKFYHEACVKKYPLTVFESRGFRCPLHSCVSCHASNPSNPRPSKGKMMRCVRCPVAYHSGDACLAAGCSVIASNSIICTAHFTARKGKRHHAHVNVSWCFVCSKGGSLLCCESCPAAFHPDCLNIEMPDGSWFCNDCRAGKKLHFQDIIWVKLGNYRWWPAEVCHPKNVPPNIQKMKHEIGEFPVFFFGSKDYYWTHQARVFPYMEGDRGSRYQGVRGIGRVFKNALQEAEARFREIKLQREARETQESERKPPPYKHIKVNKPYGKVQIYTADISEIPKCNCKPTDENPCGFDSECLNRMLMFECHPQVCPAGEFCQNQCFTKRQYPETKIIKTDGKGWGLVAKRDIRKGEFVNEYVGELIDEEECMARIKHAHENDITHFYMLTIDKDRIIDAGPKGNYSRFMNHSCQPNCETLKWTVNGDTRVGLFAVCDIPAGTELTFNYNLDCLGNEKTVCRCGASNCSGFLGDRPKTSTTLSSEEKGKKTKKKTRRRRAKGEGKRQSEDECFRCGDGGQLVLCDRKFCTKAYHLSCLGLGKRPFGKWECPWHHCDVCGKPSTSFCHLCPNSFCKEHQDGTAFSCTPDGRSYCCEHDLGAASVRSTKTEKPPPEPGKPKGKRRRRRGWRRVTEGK
PROPERTY LABEL: IC50 (µM)

// below: answered compounds
COc1cc2nc(N(C)C)nc(NC3CCN(Cc4ccccc4)CC3)c2cc1OC    1.51
COc1cc2nc(CN)nc(NC3CCN(Cc4ccccc4)CC3)c2cc1OC    1.41
COc1cc2nc(C#N)nc(NCC3CCN(C)CC3)c2cc1OC    2.43
COc1cc2nc(C#N)nc(NC3CCN(C4CC4)CC3)c2cc1OC    0.045
COc1cc2c(NC3CCN(C(C)C)CC3)nc(C#N)nc2cc1OCc1ccccc1    0.049

(A) COc1cc2ncnc(NC3CCN(Cc4ccccc4)CC3)c2cc1OC
(B) COc1cc2nc(C#N)nc(N3CCN(C)CC3)c2cc1OC
Compare reported IC50 values for A and B . Which is lower? Write the label of whichever entry you select.
A
(A: 1.45 µM, B: 4.3 µM)

(1) COc1cc2nc(C#N)nc(NC3CCN(C)CC3)c2cc1OC
(2) COc1cc2c(NC3CCN(C(C)C)CC3)nc(C#N)nc2cc1OCCCN1CCC(F)(F)CC1
Select the item with the higher value of IC50 from the options 1 and 2 listed. Write the label of whichever entry you select.
1

###

target: Histone-lysine N-methyltransferase 2B (Homo sapiens, UniProt Q9UMN6)
Sequence (Q9UMN6 whole entry): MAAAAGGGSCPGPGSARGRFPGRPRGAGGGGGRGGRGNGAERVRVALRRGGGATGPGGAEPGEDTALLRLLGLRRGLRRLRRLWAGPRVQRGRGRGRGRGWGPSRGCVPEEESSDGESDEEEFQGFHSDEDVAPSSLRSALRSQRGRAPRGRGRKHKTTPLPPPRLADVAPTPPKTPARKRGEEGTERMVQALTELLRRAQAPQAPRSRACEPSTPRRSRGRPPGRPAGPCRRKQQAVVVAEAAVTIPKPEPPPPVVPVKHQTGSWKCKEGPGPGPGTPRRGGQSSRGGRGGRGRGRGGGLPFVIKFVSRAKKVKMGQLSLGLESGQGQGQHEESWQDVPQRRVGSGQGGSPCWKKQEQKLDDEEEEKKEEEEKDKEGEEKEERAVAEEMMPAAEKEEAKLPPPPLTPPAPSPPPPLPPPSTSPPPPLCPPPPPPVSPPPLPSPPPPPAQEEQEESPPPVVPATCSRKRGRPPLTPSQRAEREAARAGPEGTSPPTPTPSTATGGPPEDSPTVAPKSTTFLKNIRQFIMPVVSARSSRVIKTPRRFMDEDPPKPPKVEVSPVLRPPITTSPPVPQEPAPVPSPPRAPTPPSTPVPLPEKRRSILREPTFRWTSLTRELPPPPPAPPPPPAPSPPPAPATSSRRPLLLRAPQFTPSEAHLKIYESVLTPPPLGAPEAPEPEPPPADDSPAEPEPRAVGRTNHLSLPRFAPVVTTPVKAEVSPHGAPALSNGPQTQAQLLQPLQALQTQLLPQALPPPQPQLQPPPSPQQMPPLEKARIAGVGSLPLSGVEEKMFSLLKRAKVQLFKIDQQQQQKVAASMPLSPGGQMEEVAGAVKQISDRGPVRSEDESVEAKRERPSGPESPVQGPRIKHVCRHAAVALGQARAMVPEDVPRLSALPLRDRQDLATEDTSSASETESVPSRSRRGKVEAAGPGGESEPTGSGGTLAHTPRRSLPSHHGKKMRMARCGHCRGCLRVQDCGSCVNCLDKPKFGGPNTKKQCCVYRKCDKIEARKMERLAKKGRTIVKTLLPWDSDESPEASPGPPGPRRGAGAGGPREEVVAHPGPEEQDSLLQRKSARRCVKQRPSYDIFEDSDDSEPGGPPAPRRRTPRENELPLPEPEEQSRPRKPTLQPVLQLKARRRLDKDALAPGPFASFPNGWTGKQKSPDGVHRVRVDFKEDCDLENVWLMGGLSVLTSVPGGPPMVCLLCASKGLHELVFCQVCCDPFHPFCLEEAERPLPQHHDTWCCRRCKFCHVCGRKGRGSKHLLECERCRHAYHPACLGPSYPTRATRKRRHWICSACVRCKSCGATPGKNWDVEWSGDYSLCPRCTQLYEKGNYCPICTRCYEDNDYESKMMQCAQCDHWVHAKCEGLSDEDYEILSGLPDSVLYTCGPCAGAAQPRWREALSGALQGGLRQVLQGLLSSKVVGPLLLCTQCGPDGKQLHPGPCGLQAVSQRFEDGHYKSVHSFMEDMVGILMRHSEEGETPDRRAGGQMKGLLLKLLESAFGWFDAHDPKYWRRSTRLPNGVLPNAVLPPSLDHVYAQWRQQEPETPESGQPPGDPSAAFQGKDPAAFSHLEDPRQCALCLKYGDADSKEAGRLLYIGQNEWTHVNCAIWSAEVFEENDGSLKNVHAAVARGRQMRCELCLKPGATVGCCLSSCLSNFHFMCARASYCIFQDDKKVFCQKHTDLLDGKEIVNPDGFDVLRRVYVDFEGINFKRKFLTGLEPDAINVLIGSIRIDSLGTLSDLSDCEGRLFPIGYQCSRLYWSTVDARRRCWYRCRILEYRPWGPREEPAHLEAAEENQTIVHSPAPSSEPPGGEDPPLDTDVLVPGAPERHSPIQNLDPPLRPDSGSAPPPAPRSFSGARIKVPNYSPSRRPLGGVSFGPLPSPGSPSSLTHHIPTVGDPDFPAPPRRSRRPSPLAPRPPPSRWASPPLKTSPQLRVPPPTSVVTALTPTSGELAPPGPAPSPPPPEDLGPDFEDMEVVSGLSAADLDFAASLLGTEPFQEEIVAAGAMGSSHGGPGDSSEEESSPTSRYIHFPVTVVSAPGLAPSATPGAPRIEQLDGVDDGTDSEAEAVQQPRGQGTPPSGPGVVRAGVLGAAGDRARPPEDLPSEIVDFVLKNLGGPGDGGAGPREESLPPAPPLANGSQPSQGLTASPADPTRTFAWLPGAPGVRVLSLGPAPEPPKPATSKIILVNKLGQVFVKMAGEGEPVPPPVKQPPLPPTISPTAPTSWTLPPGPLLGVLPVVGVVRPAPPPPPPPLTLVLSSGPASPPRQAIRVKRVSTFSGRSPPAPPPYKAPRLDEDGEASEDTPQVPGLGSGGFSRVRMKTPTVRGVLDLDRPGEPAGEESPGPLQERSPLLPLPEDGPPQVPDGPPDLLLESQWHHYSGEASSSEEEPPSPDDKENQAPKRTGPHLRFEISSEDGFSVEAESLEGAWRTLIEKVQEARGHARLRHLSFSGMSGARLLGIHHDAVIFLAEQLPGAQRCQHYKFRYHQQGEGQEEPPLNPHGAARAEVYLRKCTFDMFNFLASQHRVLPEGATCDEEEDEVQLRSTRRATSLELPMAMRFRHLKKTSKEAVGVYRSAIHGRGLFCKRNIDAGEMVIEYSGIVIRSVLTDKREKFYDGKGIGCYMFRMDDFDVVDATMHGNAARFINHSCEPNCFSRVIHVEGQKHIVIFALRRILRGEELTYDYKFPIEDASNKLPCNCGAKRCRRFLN
PROPERTY LABEL: IC50

Name the reported IC50 value associated with the compound COc1cc2c(NC3CCN(C(C)C)CC3)nc(C#N)nc2cc1OCCCN1CCOCC1
> 10 µM

###

target: Histone-arginine methyltransferase CARM1 (Homo sapiens, UniProt Q86X55)
Sequence (Q86X55 whole entry): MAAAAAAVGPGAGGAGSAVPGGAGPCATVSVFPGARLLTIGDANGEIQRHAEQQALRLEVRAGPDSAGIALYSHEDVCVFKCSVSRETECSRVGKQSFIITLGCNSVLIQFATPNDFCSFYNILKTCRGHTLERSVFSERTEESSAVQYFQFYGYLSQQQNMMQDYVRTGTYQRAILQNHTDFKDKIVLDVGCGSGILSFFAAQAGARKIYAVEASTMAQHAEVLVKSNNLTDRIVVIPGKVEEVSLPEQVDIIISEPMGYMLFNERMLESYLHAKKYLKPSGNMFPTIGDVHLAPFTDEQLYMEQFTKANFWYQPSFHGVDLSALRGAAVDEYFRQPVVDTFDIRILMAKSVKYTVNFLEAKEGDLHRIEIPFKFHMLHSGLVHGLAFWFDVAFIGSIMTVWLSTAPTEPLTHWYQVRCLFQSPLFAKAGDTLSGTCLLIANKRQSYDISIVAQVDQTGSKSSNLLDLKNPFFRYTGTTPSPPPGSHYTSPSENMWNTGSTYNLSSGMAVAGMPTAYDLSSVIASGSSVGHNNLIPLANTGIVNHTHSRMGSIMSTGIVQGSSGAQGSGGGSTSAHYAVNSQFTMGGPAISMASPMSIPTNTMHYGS
PROPERTY LABEL: pIC50
Scale explanation: pIC50 corresponds to minus log10 of a concentration expressed in moles per litre.

API: value(readout= pIC50, system= Histone-arginine methyltransferase CARM1 (Homo sapiens, UniProt Q86X55), query= COc1cc2c(NC3CCN(C(C)C)CC3)nc(C#N)nc2cc1OCCCN1CCOCC1 )
5.05

###

molecular target: Histone-lysine N-methyltransferase EHMT2 (Homo sapiens) (UniProt Q96KQ7); experiment: Inhibition of G9a (unknown origin) at 10 uM by AlphaLISA assay relative to control
PROPERTY LABEL: inhibition (%)

COc1cc2nc(N3CCOCC3)nc(NC3CCN(Cc4ccccc4)CC3)c2cc1OC    98.5
COc1cc2ncnc(NC3CCN(Cc4ccccc4)CC3)c2cc1OC    82.4
COc1cc2nc(N3CCCCC3)nc(NC3CCN(Cc4ccccc4)CC3)c2cc1OC    99.2
COc1cc2nc(N3CCCN(C)CC3)nc(NC3CCN(Cc4ccccc4)CC3)c2cc1OC    98.8
CNc1nc(NC2CCN(Cc3ccccc3)CC2)c2cc(OC)c(OC)cc2n1    99.4
COc1cc2nc(N)nc(NC3CCN(Cc4ccccc4)CC3)c2cc1OC    99.6
COc1cc2nc(-c3ccccc3)nc(NC3CCN(Cc4ccccc4)CC3)c2cc1OC    99.2
